Numbers sourced from PubChem BioAssay AID1745844.

- Tested on: rodent lifetime carcinogenesis bioassay, tumor incidence TD50
- assay.info: carcinogenic potency in animals, long-term in vivo studies, CPDB compilation (AID 1745844)
- test.context: mouse; strain Swiss albino; males; by gavage; site: lung; lesion: several types; types named in the paper; dosed 52 weeks; study length 129 weeks
experimental.readout: TD50

The reported value for N#[N+]c1ccccc1 in terms of TD50 is 12.7 mg/kg/day

###

- System: rodent lifetime carcinogenesis bioassay, tumor incidence TD50
- assay.info: carcinogenic potency in animals, long-term in vivo studies, CPDB compilation (AID 1745844)
- test.context: mouse; strain B6C3F1; females; inhaled; site: liver; lesion: hepatocellular carcinoma; dosed 95 weeks; study length 95 weeks
experimental.readout: TD50

Please fill in: TD50 reported for FC(F)=C(F)F = 80.8 mg/kg/day

###

- Tested on: rodent lifetime carcinogenesis bioassay, tumor incidence TD50
- assay.info: carcinogenic potency in animals, long-term in vivo studies, CPDB compilation (AID 1745844)
- test.context: rat; strain Fischer 344; males; by gavage; site: skin; lesion: keratoacanthoma; dosed 103 weeks; study length 104 weeks
experimental.readout: TD50 (mg/kg/day)
Give your result in mg/kg/day as a bare value.

The reported value for c1ccoc1 in terms of TD50 is 16.4

###

- System: rodent lifetime carcinogenesis bioassay, tumor incidence TD50
- assay.info: carcinogenic potency in animals, long-term in vivo studies, CPDB compilation (AID 1745844)
- test.context: rat; strain Fischer 344; males; in feed; site: liver; lesion: hepatocellular carcinoma + neoplastic nodule; dosed 104 weeks; study length 109 weeks
experimental.readout: TD50

Lab note: measured TD50 of NCCCCCCCCCCC(=O)O was 1100 mg/kg/day

###

- Tested on: rodent lifetime carcinogenesis bioassay, tumor incidence TD50
- assay.info: carcinogenic potency in animals, long-term in vivo studies, CPDB compilation (AID 1745844)
- test.context: rat; strain Fischer 344; males; by gavage; site: liver; lesion: hemangiosarcoma; dosed 71 weeks; study length 71 weeks
experimental.readout: TD50

Entry C=C1C/C(=C/C)C(=O)O[C@@H]2CCN3CC=C(COC(=O)[C@@]1(O)CO)[C@H]23 under rodent lifetime carcinogenesis bioassay, tumor incidence TD50 had TD50 of 0.0744 mg/kg/day

###

- Test system: rodent lifetime carcinogenesis bioassay, tumor incidence TD50
- assay.info: carcinogenic potency in animals, long-term in vivo studies, CPDB compilation (AID 1745844)
- test.context: rat; strain Fischer 344; males; in feed; site: thyroid gland; lesion: c-cell adenoma; dosed 109 weeks; study length 109 weeks
Calls of active or inactive are those of the source. No rule for the calls is given here.
experimental.readout: TD50

For record S=C(NC1CCCCC1)NC1CCCCC1 the listed TD50 is 5480 mg/kg/day (inactive)

###

- Test system: rodent lifetime carcinogenesis bioassay, tumor incidence TD50
- assay.info: carcinogenic potency in animals, long-term in vivo studies, CPDB compilation (AID 1745844)
- test.context: rat; strain Fischer 344; females; in drinking water; site: liver; lesion: neoplastic nodule; dosed 75 weeks; study length 120 weeks
experimental.readout: TD50

The compound O=NN(CCO)CC(O)CO (stereo unspecified) , tested on rodent lifetime carcinogenesis bioassay, tumor incidence TD50, showed TD50 of 8.69 mg/kg/day

###

- Test system: rodent lifetime carcinogenesis bioassay, tumor incidence TD50
- assay.info: carcinogenic potency in animals, long-term in vivo studies, CPDB compilation (AID 1745844)
- test.context: rat; strain Wistar; males; inhaled; site: lung; lesion: muco-epidermoid carcinoma; dosed 78 weeks; study length 134 weeks
experimental.readout: TD50 (mg/kg/day)
# value in mg/kg/day; strip the unit string

[Cl][Cd][Cl] has a reported TD50 of 0.315
